Just for reference, patent US10227308B2 is where these values come from.

- target_entity: CB2 receptors (Homo sapiens)
- Sequence (P34972 whole entry): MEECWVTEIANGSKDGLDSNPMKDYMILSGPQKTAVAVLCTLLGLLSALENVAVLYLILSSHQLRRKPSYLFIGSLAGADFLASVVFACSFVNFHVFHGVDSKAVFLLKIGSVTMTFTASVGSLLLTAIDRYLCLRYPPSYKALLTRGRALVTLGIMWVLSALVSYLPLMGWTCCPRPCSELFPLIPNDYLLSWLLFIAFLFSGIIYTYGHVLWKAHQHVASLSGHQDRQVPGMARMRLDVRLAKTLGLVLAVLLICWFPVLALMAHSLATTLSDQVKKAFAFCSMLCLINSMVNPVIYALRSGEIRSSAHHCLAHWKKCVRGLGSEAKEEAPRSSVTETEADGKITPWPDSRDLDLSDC
- assay_name: Radioligand competition binding of [^3H]-CP55940, CHO-K1 cell membranes
- condition_details: [^3H]-CP55940 0.3 nM, n=13
endpoint_label: pKi
Recall that pKi is obtained by taking minus log10 of the concentration measured in molar.

pKi recorded for this compound, Cn1c(C(C)(C)C)cc(=NC(=O)c2cc(C(F)(F)F)ccc2OCC(C)(C)O)n1CC1CCC1 , is 8.97

----------
- target_entity: human CB1 receptors (Homo sapiens, UniProt P21554)
- Sequence (P21554 whole entry): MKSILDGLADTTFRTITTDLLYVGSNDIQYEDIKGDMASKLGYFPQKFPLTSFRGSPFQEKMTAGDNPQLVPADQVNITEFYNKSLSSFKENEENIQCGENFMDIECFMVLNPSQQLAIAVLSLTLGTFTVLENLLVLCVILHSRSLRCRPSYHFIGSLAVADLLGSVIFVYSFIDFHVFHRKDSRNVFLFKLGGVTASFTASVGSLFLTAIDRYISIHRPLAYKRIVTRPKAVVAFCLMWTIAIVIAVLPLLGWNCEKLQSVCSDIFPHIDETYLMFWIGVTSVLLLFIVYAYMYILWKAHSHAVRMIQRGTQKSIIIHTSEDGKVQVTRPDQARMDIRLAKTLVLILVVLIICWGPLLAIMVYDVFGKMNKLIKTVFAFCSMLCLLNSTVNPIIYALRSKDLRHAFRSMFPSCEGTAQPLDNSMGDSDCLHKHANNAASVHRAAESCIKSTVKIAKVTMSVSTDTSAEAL
- assay_name: Radioligand competition binding of [^3H]-CP55940, CHO-K1 cell membranes
- condition_details: [^3H]-CP55940 0.3 nM, n=6
- Method: CHO-K1 beta-arrestin cells (DiscoveRx Inc., Fremont, Calif.) expressing human CB1 and human CB2 were cultured in F-12 Nutrient Mixture (HAM) supplemented with 10% FBS, 300 μg ml-1 hygromycin and 800 μg ml-1 geneticin (G418). Cells were incubated in a humidified atmosphere at 37° C. with 5% CO2. […]
endpoint_label: Ki (µM)
Dear colleague, please return just the value in µM, with no unit written.

Ki on human CB1 receptors (Homo sapiens, UniProt P21554) for Cn1c(C(C)(C)C)cc(=NC(=O)c2cc(C(F)(F)F)ccc2OCC(C)(C)O)n1CC1CCC1 is 3.89
